# assay system: T1, human MSLN-R1-his protein (human, UniProt Q13421 296-390)
# T1 construct: Made in HEK293E cells, purified on nickel column; also called hMSLN-R1-his; human MSLN-R1 protein; not shown: His tag
# T1 chain: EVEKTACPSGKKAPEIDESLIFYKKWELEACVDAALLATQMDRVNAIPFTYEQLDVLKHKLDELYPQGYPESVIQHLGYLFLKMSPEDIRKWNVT
# method notes: ELISA, coated antigen, antibody 20 nM
measurement kind: OD450
Answer with a number only.

Given the entry S009-F7.69.8 chimeric antibody (antibody, human IgG1, kappa, V domains shown, Human-murine chimeric antibody, human IgG1/kappa constant regions) VH: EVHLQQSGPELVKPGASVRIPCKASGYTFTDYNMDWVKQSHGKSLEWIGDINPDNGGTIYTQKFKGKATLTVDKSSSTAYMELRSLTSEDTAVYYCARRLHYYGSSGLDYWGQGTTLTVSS VL: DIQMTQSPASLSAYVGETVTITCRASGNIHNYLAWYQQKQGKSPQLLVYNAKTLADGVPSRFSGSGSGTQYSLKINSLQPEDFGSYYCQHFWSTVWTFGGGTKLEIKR , report its measured OD450. 0.06

Another binder to check: S009-F7.2.3 chimeric antibody (antibody, human IgG1, kappa, V domains shown, Human-murine chimeric antibody, human IgG1/kappa constant regions) VH: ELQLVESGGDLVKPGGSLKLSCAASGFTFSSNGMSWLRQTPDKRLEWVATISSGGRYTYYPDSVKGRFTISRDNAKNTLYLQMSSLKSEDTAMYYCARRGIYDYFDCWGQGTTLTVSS VL: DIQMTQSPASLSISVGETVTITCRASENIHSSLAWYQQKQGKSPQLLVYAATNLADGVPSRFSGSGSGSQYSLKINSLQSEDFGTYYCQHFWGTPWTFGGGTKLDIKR 0.08

Values compiled from patent US20250250357A1.
